Assay: NCI Yeast Anticancer Drug Screen. Data for the mec2-1 strain (AID 157)
Conditions: S. cerevisiae mec2-1 strain, at 50.0 µM, hits give high values
The panel holds about 79,000 compounds, 15% with a hit somewhere; the sample as a whole holds those more often.
List of growth inhibition values.

- Molecule: "CCOC(=O)c1[nH]c(C(=O)O)c(C(=O)OCC)c1C"
  Unit Info: "%"
  growth inhibition: 3.7
- Molecule: "CCOC(=O)C1(C(C)C)OC2(O)C3CCCN3C(=O)C(C(C)C)N2C1=O (stereo unspecified)"
  Unit Info: "%"
  growth inhibition: 10.5
- Molecule: "O=c1[nH]c2cc([N+](=O)[O-])ccc2nc1/C(=N/Nc1ccccc1)C(O)c1ccco1 (stereo unspecified)"
  Unit Info: "%"
  growth inhibition: -17.4
- Molecule: "CC(C)OP(=O)(OC(C)C)/C(N)=N/Nc1ccc([N+](=O)[O-])cc1"
  Unit Info: "%"
  growth inhibition: -0.2
- Molecule: "CC1CC(=O)N2CCCNC2=C1C#N (stereo unspecified)"
  Unit Info: "%"
  growth inhibition: 4.6
- Molecule: "c1ccc(COC(c2ccccc2)(c2ccccc2)c2ccccc2)cc1"
  Unit Info: "%"
  growth inhibition: -2.2
